Data credit: patent US20130251703A1

# target_of_assay: T1, Hu HER3: CD33-[Human HER3, residues 20-640]-TAG (human, UniProt P21860 20-640)
# T1 construct: also called hu HER3-Tag; HER3-Tag; not shown: C-terminal TAG (e.g. FLAG TAG)
# test_name: solution equilibrium titration (SET), IgG, ECL read-out
pKd: −log10 of the molar value.
measurement_type: pKd

{"binder": "MOR12605 (antibody, human IgG1, kappa, V domains shown, Tested as IgG) VH: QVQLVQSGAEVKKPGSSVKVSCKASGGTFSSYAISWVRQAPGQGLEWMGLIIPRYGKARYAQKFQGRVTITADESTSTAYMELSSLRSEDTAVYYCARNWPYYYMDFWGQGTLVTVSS VL: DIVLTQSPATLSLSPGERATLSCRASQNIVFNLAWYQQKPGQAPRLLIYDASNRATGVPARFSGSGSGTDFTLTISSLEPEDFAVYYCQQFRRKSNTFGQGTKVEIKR", "measurement": 8.74}
{"binder": "MOR12516 (antibody, human IgG1, lambda, V domains shown, Tested as IgG) VH: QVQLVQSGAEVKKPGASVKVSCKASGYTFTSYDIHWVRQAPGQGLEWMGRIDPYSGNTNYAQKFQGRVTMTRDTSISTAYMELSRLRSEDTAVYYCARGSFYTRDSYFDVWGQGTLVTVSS VL: DIALTQPASVSGSPGQSITISCTGTSSDVGTYNQVSWYQQHPGKAPKLMIYGVSKRPSGVSNRFSGSKSGNTASLTISGLQAEDEADYYCQSRDTYRPVKVFGGGTKLTVLG", "measurement": 8.74}
{"binder": "MOR14537 (antibody, human IgG1, lambda, V domains shown, Tested as IgG) VH: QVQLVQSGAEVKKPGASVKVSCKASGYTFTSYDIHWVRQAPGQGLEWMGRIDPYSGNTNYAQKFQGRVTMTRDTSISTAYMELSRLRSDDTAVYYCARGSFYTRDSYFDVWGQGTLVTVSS VL: QSALTQPASVSGSPGQSITISCTGTSSDVGTYNQVSWYQQHPGKAPKLMIYGVSKRPSGVSNRFSGSKSGNTASLTISGLQAEDEADYYCSSATQKPDVTVFGGGTKLTVLG", "measurement": 9.68}
{"binder": "MOR14533 (antibody, human IgG1, kappa, V domains shown, Tested as IgG) VH: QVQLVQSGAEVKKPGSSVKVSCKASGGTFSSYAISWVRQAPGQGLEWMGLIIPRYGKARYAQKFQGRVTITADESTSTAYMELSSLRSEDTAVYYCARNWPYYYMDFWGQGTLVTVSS VL: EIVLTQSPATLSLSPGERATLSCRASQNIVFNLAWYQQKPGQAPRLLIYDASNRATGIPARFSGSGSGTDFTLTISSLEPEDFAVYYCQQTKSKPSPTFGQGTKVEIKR", "measurement": 9.19}
{"binder": "MOR12921 (antibody, human IgG1, lambda, V domains shown, Tested as IgG) VH: QVQLVQSGAEVKKPGASVKVSCKASGYTFTGYYMHWVRQAPGQGLEWMGDIDPHSGNAVYAQKFQGRVTMTRDTSISTAYMELSRLRSEDTAVYYCARGSFYTRDSYFDVWGQGTLVTVSS VL: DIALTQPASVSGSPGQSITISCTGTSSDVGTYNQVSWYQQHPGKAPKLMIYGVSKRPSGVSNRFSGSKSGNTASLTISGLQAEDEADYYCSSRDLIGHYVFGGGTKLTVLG", "measurement": 9.82}
